Test system: NCI-H69 (Small Cell Lung Carcinoma);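 further: after 72 h of two-drug dosing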
MEASUREMENT NOTES: Bliss excess, mean over the matrix (fraction); higher = more synergy
What Bliss excess was measured for each of the following?
Give bare numbers.

Field: example entries. Status: answers known.
>>> value("CC1(C)CCC(CN2CCN(c3ccc(C(=O)NS(=O)(=O)c4ccc(NCC5CCOCC5)c([N+](=O)[O-])c4)c(Oc4cnc5[nH]ccc5c4)c3)CC2)=C(c2ccc(Cl)cc2)C1 [Venetoclax] + COc1cc(Nc2ncc3c(n2)-c2ccc(Cl)cc2C(c2c(F)cccc2OC)=NC3)ccc1C(=O)O [Alisertib] (first compound max 1 µM, 7x7, partner max 10 µM)")
0.146
>>> value("CN(CCO)CC[C@H](CSc1ccccc1)Nc1ccc(S(=O)(=O)NC(=O)c2ccc(N3CCC([C@@H](O)c4ccccc4-c4ccc(Cl)cc4)CC3)cc2)cc1S(=O)(=O)C(F)(F)F [AZD4320] + C[C@@H](Nc1cc(F)cc(F)c1)c1cc(C(=O)N(C)C)cc2c(=O)cc(N3CCOCC3)oc12 [AZD8186] (first compound max 1 µM, 7x7, partner max 3 µM)")
-0.0208

Field: next compound
q: May I ask what Bliss excess has been recorded for Cc1c2c(nn1C)CSCc1cc(n(C)n1)CSc1cc(c3ccccc3c1)OCCCc1c(C(=O)O)n(C)c3c-2c(Cl)ccc13 [AZD5991] + C=CCn1c(=O)c2cnc(Nc3ccc(N4CCN(C)CC4)cc3)nc2n1-c1cccc(C(C)(C)O)n1 [AZD1775] (first compound max 1 µM, partner max 1 µM) ?
a: -0.116
